- EXPERIMENTAL DETAILS: NCI Yeast Anticancer Drug Screen. Data for the cln2 rad14 strain (AID 165)
- RUN CONDITIONS: S. cerevisiae cln2 rad14 strain, at 5.0 µM (retest, dose inferred, filed as 0.5)
Compounds without any hit were thinned out: in the full panel of roughly 79,000, 15% have a hit. Active and inactive are the calls of the source. Cut-off read from the data, not from the text of the source: active = growth inhibition above about 70%; inactive = the rest.
Labels: active, inactive

| MOLECULE | ANSWER LABEL |
| --- | --- |
| Nc1nc(N)c2c(Cl)c(CNc3ccc(Cl)c(Cl)c3)ccc2n1 | inactive |
| CC(c1ccccc1)c1ccc(O)cc1 (stereo unspecified) | inactive |
| O=[N+]([O-])c1c(Br)cc(Br)c2c1Nc1c(ccc(Cl)c1Cl)S2 | inactive |
| CCN1CCC(O)(c2ccc(Oc3ccccc3)cc2)C(C(=O)c2ccc(Oc3ccccc3)cc2)C1 (stereo unspecified) | inactive |
| CC(=O)Oc1ccc2c(c1)Oc1cc(OC(C)=O)ccc1C21OC(=O)c2ccccc21 | inactive |
| CC1=NC(=Cc2ccc([N+](=O)[O-])cc2)C(=O)N1n1c(-c2ccccc2)nc2ccccc2c1=O | inactive |
| CC(=O)OC(c1ccccc1)c1ccc(Cl)cc1 (stereo unspecified) | inactive |
| CCN(CC)CCOc1ccc2c(C)c(-c3ccccc3)c(=O)oc2c1 | inactive |
| O=C(O)CSCc1ccc(Cl)cc1 | inactive |
| O=S(c1cc(Br)ccc1O)c1cc(Br)ccc1O | inactive |
| CC(O)CN1CCN(CC(C)O)CC1.[I][Pt+2][I] (stereo unspecified) | inactive |
| COc1cc2c3c(c1)SCCC(=O)N3CCN2 | inactive |
| CC(C)OP(=O)(OC(C)C)C(=Nc1ccccc1)NNc1ccc([N+](=O)[O-])cc1 | inactive |
| O=S(c1cc(Cl)cc(Cl)c1O)c1cc(Cl)cc(Cl)c1O | inactive |
| [N-]=[N+]=NC(=O)Nc1cccc(C(F)(F)F)c1 | inactive |
| OCC1OC(n2cnc3c(=S)nc[nH]c32)C(O)C1O (stereo unspecified) | inactive |
| CS(=O)(=O)OC1CC(n2ccc(=O)[nH]c2=O)OC1COC(c1ccccc1)(c1ccccc1)c1ccccc1 (stereo unspecified) | inactive |
| Cc1cc(=O)[nH]c2ccc(Cc3ccc(N)cc3)cc12 | inactive |
| COc1cccc2c1C(=O)c1c(O)c3c(c(O)c1C2=O)CC(O)(C(C)=O)CC3OC1CC(N)C(O)C(C)O1 (stereo unspecified) | inactive |
| C[C@@H](O)[C@H]1CC[C@H]2[C@@H]3CCC4=C/C(=N/O)CC[C@]4(C)[C@H]3CC[C@]12C | inactive |
| CN(C)Cc1c(O)ccc2ccccc12 | inactive |
| CCCCCCC(CCCCCCCCCCC(=O)OCC(CC)CC)OC(=O)CC (stereo unspecified) | inactive |
| CCN(CCO)CCNc1ccc(C)c2sc3ccccc3c(=O)c12 | inactive |
| CCC(=O)OCOc1ccc(/C=C2\CCC(CN(C)C)C2=O)cc1 (stereo unspecified) | inactive |
| OC(C/C=C/c1ccccc1)(c1ccccc1)c1ccccc1 | inactive |
| CCCCCCCCCC(=O)c1ccc(O)c(O)c1O | inactive |
| Nc1c(C(=O)O)ccc(C(=O)O)c1C(=O)O | inactive |
| COC(=O)C1=COC(C)C2C[n+]3ccc4c([nH]c5ccccc54)c3CC12 (stereo unspecified) | inactive |
| CN1C(c2ccccc2)CC(=NOCc2ccccc2)CC1c1ccccc1 (stereo unspecified) | inactive |
| O=[N+]([O-])c1ccc(N/N=C/CC(O)(C(F)(F)F)C(F)(F)F)c([N+](=O)[O-])c1 | inactive |
| C=C1C(=O)OC2C[C@@]3(C)CCC[C@H](C)C3=CC12 (stereo partly specified) (tested in a mixture with another compound) | inactive |
| Nc1ccc2cc3ccc(N)cc3nc2c1 | inactive |
| CO[C@H](C(=O)[C@@H](O)[C@@H](C)O)[C@@H]1Cc2cc3cc(OC4CC(OC5CC(O)C(O)C(C)O5)C(O)C(C)O4)c(C)c(O)c3c(O)c2C(=O)[C@H]1OC1CC(OC2CC(OC3CC(C)(O)C(O)C(C)O3)C(O)C(C)O2)C(O)C(C)O1 (stereo partly specified) | inactive |
| Clc1nc2nc(Cl)c(Cl)n2nc1Cl | inactive |
| CCn1c(-c2c(Cl)cc(O)cc2Cl)cc2c(Cl)cc(O)cc21 | inactive |
| O=c1cc[nH]c2ccccc12 | inactive |
| C1=C(c2ccccc2)N(CCc2ccccc2)C(c2ccccc2)=CN1Cc1ccccc1 | inactive |
| c1ccc(-c2nc3ccccc3[nH]2)cc1 | inactive |
| COC(=O)c1ccc(O)c(OC)c1 | inactive |
| COc1ccc2c(c1)C(Cc1ccc(Oc3ccc(CC4c5cc(OC)ccc5CC[N+]4(C)C)cc3)cc1)[N+](C)(C)CC2 (stereo unspecified) | inactive |
| O=C1/C(=C/c2ccc(Cl)cc2)Sc2scc(-c3cccc([N+](=O)[O-])c3)[n+]21 | inactive |
| O=C1C=CC(=O)N1c1ccc(N=Nc2ccccc2)cc1 | active |
| O=C(O)COc1ccc(OCC(=O)O)cc1 | inactive |
| Cc1nnc(S(=O)(=O)c2ccc(N=Nc3c(N)nc(N)nc3N)cc2)s1 | inactive |
| N#CNC1=NCOCN1 | inactive |
| Cc1c2ccccc2c(C=O)c2ccccc12 | inactive |
